System: N9
ASSAY_PROCEDURE: Cytotoxicity against LPS-induced mouse N9 cells assessed as decrease in cell viability at 1 to 100 ug/ml after 24 hrs by MTT assay
Type: cell-based
TEST_PARAMETERS: n9, 24 h
MEASUREMENT_NAME: Activity

Example entries and their recorded answers appear below.
>  <COMPOUND>
O=C(N[C@@H](Cc1ccccc1)C(=O)N[C@H](CO)Cc1ccccc1)c1ccccc1

>  <MEASUREMENT_NAME>
Activity

>  <MEASURED_RESULT>
Non-Toxic

$$$$
>  <COMPOUND>
CC1=CC(=O)CC(C)(C)[C@@]1(O)/C=C/C(C)=C\C(=O)O [(+)-ABSCISIC ACID]

>  <MEASUREMENT_NAME>
Activity

>  <MEASURED_RESULT>
Non-Toxic

$$$$
>  <COMPOUND>
O=c1c(O[C@@H]2O[C@H](CO)[C@@H](O)[C@H](O)[C@H]2O)c(-c2ccc(O)c(O)c2)oc2cc(O)cc(O)c12

>  <MEASUREMENT_NAME>
Activity

>  <MEASURED_RESULT>
Non-Toxic

$$$$
>  <COMPOUND>
COc1ccc(CO)cc1O

>  <MEASUREMENT_NAME>
Activity

>  <MEASURED_RESULT>
Non-Toxic

$$$$
>  <COMPOUND>
COc1ccc(-c2coc3c(OC)c(O)ccc3c2=O)cc1O

>  <MEASUREMENT_NAME>
Activity

>  <MEASURED_RESULT>
Non-Toxic

$$$$
>  <COMPOUND>
O=c1c(O)c(-c2ccc(O)c(O)c2)oc2cc(O)cc(O)c12

>  <MEASUREMENT_NAME>
Activity

>  <MEASURED_RESULT>
Non-Toxic

$$$$
>  <COMPOUND>
COc1cc([C@@H]2OC[C@@H]3[C@H]2CO[C@H]3c2cc(OC)c(O[C@@H]3O[C@H](CO)[C@@H](O)[C@H](O)[C@H]3O)c(OC)c2)cc(OC)c1O [ACANTHOSIDE B]

>  <MEASUREMENT_NAME>
Activity

>  <MEASURED_RESULT>
Non-Toxic

$$$$
>  <COMPOUND>
C[C@@H]1O[C@@H](OC[C@H]2O[C@@H](Oc3c(-c4ccc(O)c(O)c4)oc4cc(O)cc(O)c4c3=O)[C@H](O[C@@H]3O[C@@H](C)[C@H](O)[C@@H](O)[C@H]3O)[C@@H](O)[C@@H]2O)[C@H](O)[C@H](O)[C@H]1O

>  <MEASUREMENT_NAME>
Activity

>  <MEASURED_RESULT>
Non-Toxic

$$$$
>  <COMPOUND>
CC1=CC(C)(C)[C@@H](C)C1

>  <MEASUREMENT_NAME>
Activity

>  <MEASURED_RESULT>
Non-Toxic

$$$$
>  <COMPOUND>
COc1cc([C@@H]2OC[C@@H]3[C@H]2CO[C@H]3c2ccc(O)c(OC)c2)ccc1O [(+)-PINORESINOL]

>  <MEASUREMENT_NAME>
Activity

>  <MEASURED_RESULT>
Non-Toxic

$$$$

I need Activity for every entry listed below, if you could help.
1. COc1cc(-c2oc3cc(O)cc(O)c3c(=O)c2O)ccc1O
2. CC1=CC(=O)CC(C)(C)[C@@]1(O)/C=C/[C@@H](C)O
3. COc1ccc(-c2coc3cc(O)c(OC)cc3c2=O)cc1O
4. COc1ccc(-c2coc3cc(O)ccc3c2=O)cc1O
5. COc1cc([C@H]2OC[C@H]3[C@@H]2CO[C@@H]3c2cc(OC)c(O)c(OC)c2)cc(OC)c1O
6. COc1cc(OC)cc([C@@H]2OC[C@H]3[C@@H]2CO[C@H]3c2ccc(O)c(OC)c2)c1
7. C=Cc1ccc(O)cc1OC

Output line:
1. Non-Toxic
2. Non-Toxic
3. Non-Toxic
4. Non-Toxic
5. Non-Toxic
6. Non-Toxic
7. Non-Toxic
